test: Plasma pharmacokinetics by validated LC/MS-MS (cycle 1, day 15); type: in vivo; details: human, oral, 300 mg, camizestrant 300 mg monotherapy, Cycle 1 Day 15, median
Measured endpoint: Tmax (h)

Compound	Measured endpoint	Unit info	Value measured
C[C@@H]1Cc2c(ccc3[nH]ncc23)[C@@H](c2ccc(NC3CN(CCCF)C3)cn2)N1CC(F)(F)F [camizestrant]	Tmax	h	3

---

experiment: Plasma pharmacokinetics by validated LC/MS-MS (cycle 1, day 15); type: in vivo; settings: human, oral, camizestrant 75 mg + ribociclib (600 mg), Cycle 1 Day 15, geomean
Measured endpoint: AUC (ng·h/mL)

Compound string	Unit info	Value measured
C[C@@H]1Cc2c(ccc3[nH]ncc23)[C@@H](c2ccc(NC3CN(CCCF)C3)cn2)N1CC(F)(F)F	ng·h/mL	2750

---

Assay: Plasma pharmacokinetics by validated LC/MS-MS (cycle 1, day 15)
Type: in vivo
Details: human, oral, camizestrant 75 mg + ribociclib (400 mg), Cycle 1 Day 15, median
Method: Details of safety and efficacy assessments and of ctDNA sampling and assessments have been described previously ([37]). For PK analyses, plasma concentrations of camizestrant, abemaciclib, palbociclib, and ribociclib were determined using validated LC/MS-MS. Details of assessments and analysis sets have been described previously ([38]). Briefly, safety was assessed in the safety analysis set, and efficacy and antitumor activity were assessed in the evaluable-for-response set. […]

Compound	Tmax [h]
C[C@@H]1Cc2c(ccc3[nH]ncc23)[C@@H](c2ccc(NC3CN(CCCF)C3)cn2)N1CC(F)(F)F [camizestrant]	3.6

---

assay: Plasma pharmacokinetics by validated LC/MS-MS (cycle 1, day 15); format: in vivo; settings: human, oral, camizestrant 150 mg + abemaciclib, Cycle 1 Day 15, geomean

Compound string	Unit info	AUC
C[C@@H]1Cc2c(ccc3[nH]ncc23)[C@@H](c2ccc(NC3CN(CCCF)C3)cn2)N1CC(F)(F)F	ng·h/mL	2050

---

assay: Plasma pharmacokinetics by validated LC/MS-MS (cycle 1, day 15); format: in vivo; details: human, oral, camizestrant 150 mg + palbociclib, Cycle 1 Day 15, geomean

Compound string	AUC [ng·h/mL]
C[C@@H]1Cc2c(ccc3[nH]ncc23)[C@@H](c2ccc(NC3CN(CCCF)C3)cn2)N1CC(F)(F)F	2420

---

assay: Plasma pharmacokinetics by validated LC/MS-MS (cycle 1, day 15); format: in vivo; settings: human, oral, camizestrant 75 mg + ribociclib (600 mg), Cycle 1 Day 15, geomean

Compound string	Unit info	Cmax
C[C@@H]1Cc2c(ccc3[nH]ncc23)[C@@H](c2ccc(NC3CN(CCCF)C3)cn2)N1CC(F)(F)F	ng/mL	179

---

assay: Plasma pharmacokinetics by validated LC/MS-MS (cycle 1, day 15); format: in vivo; conditions: human, oral, camizestrant 75 mg + abemaciclib, Cycle 1 Day 15, geomean
Measured endpoint: AUC (ng·h/mL)

Compound string	Value measured
C[C@@H]1Cc2c(ccc3[nH]ncc23)[C@@H](c2ccc(NC3CN(CCCF)C3)cn2)N1CC(F)(F)F	1120

---

test: Plasma pharmacokinetics by validated LC/MS-MS (cycle 1, day 15); assay type: in vivo; conditions: human, oral, 150 mg, camizestrant 150 mg monotherapy, Cycle 1 Day 15, geomean
Measured endpoint: AUC (ng·h/mL)

Molecule	Value measured
C[C@@H]1Cc2c(ccc3[nH]ncc23)[C@@H](c2ccc(NC3CN(CCCF)C3)cn2)N1CC(F)(F)F [camizestrant]	2160
